Listed compounds paired with reported AC50 for growth inhibition (log10 M)
# Tested on: SB.mhdgc-1
# methodSummary: AC50 for growth inhibition (viability) (log10 M); higher = less potent
# conditionInfo: SB.mhdgc-1 (hereditary c.1380delA CDH1 gastric cancer)
experimentalEndpoint: AC50 for growth inhibition (log10 M)

CC(C)C[C@H](CC(=O)O)C(=O)N[C@@H](Cc1c[nH]c2ccccc12)C(=O)N[C@@H](C)c1ccccc1 = -5.53
N[S+](=O)([O-])c1cccc2c1C(=O)c1cccc(O)c1C2=O = -6.98
COC1CCC(C(=O)c2ccc3nc4c(cc3c2)CCCO4)CC1 (stereo not given) = -4.78
CCCCc1nc2cc(/C=C/C(=O)NO)ccc2n1CCN(CC)CC = -5.33
Clc1ccc(C2(c3ccc(-c4cn[nH]c4)cc3)CCNCC2)cc1 = -4.88
CC(C)c1ccccc1Cc1cc(C(=O)Nc2ccc([S+](=O)([O-])c3ccccc3C(C)(C)C)cc2)c(O)c(O)c1O = -4.83
CC(C)Oc1cc(Nc2nc(N[C@@H](C)c3ccc(F)cn3)ncc2Cl)n[nH]1 = -4.73
Cc1c[nH]c(/C=C2\C(=O)Nc3ccccc32)c1CCC(=O)O = -4.68
Cc1n[nH]c2ccc(-c3cncc(OC[C@@H](N)Cc4c[nH]c5ccccc45)c3)cc12 = -6.03
CN(C)C/C=C/C(=O)Nc1cc2c(Nc3ccc(F)c(Cl)c3)ncnc2cc1O[C@H]1CCOC1 = -4.88
